Measurement Target: NOS1, P29475
Sequence (P29475 9-101): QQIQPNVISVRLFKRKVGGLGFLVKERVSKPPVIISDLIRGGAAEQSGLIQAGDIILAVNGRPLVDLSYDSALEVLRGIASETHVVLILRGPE
Protocol Text: holdup assay
Design: key: below the threshold = too weak to quantify, mostly under pKd 3.1 to 4
Condition Summary: plain residues with an end cap or a label only (N-terminal biotin on a linker: ado-ado)
Recorded Endpoint: pKd

INSERT INTO results (binder, experimental_result) VALUES
  ('VLYPREGTEV [FOXI1, Q12951]', 4.05),
  ('KPGKGSETVV [FZD4, Q9ULV1]', 3.81),
  ('NTLNRKTTPV [CACNG8, Q8WXS5]', 4.04),
  ('ARSAAASNYV [CLDN4, O14493]', 3.82),
  ('SPDRDRESIV [SCN5A, Q14524]', 3.7),
  ('STKRKLASAV [NCF1, P14598]', 4.07),
  ('QKAPTKEFYA [SDC2, P34741]', 3.83);

meta.source: paper PMC9482650
